target: HLA-B*57:01; assay: IEDB peptide-MHC binding, purified MHC/direct/fluorescence; filed as Kd, often an IC50 or EC50 that approximates it; bounds were set here for any values at or beyond the usual limits of such assays; details: source organism: Escherichia coli O157:H7
Readout Type: pKd
pKd is a log-scale quantity: -log10 of the concentration expressed in molar.

Exercise: Value lookup for pKd; key = `KSWPAAIDW`
Key: 7.49

---

biological target: HLA-B*08:01; assay: IEDB peptide-MHC binding, purified MHC/competitive/fluorescence; filed as Kd, often an IC50 or EC50 that approximates it; bounds were set here for any values at or beyond the usual limits of such assays; details: source organism: Escherichia coli
Readout Type: Kd
Quote the value and follow it with the unit of measurement.

Exercise: Value lookup for Kd; key = `LAARKARAA`
Key: 0.644 µM
